# Tested on: velvetleaf
# Experiment notes: Herbicidal activity test against upland field weeds (foliar treatment test)
# Type: in vivo
# Parameters: key: 0 (no control); 100 (complete control)
# Conditions used: 50 g ai/ha, scale 0-100
Give measured Foliar treatment herbicidal activity, velvet leaf for each item. Keep answers brief.
Reply with the value as a number alone.

Bench note: what Foliar treatment herbicidal activity, velvet leaf did Cn1cnc(COCc2nc(C(F)F)ccc2C(=O)Nc2nnnn2C)n1 show?
100

Any idea what Foliar treatment herbicidal activity, velvet leaf was measured for CCOC(=O)OC(C)N(C(=S)c1ccc(C(F)(F)F)nc1CSCc1nnn(C)n1)c1nnnn1C (stereo not shown) ?
98

Quick one: Foliar treatment herbicidal activity, velvet leaf for Cn1nnc(C[S+]([O-])Cc2nc(C(F)F)ccc2C(=O)Nc2nnnn2C)n1 (stereo not shown) ?
80

Quick one: Foliar treatment herbicidal activity, velvet leaf of Cn1nnnc1COc1nc(Cl)ccc1C(=O)Nc1nnnn1C ?
0

Would you kindly share the measured Foliar treatment herbicidal activity, velvet leaf for CSc1nc(COCc2nc(C(F)(F)F)ccc2C(=O)Nc2nnnn2C)nn1C ?
100

So what's the measured Foliar treatment herbicidal activity, velvet leaf for this one? CN(Cc1nnnn1C)c1nc(C(F)(F)F)ccc1C(=O)Nc1nnnn1C
100

Foliar treatment herbicidal activity, velvet leaf lookup needed for Cn1nnc(C[S+]([O-])Cc2nc(C(F)(F)F)ccc2C(=O)Nc2nnnn2C)n1 (stereo not shown) , thanks.
100

Can you share its Foliar treatment herbicidal activity, velvet leaf? I mean this compound: CCOC(=O)OC(C)n1nnn(C)c1=NC(=O)c1ccc(C(F)(F)F)nc1CSCc1nnn(C)n1 (stereo not shown)
100

Looking for the measured Foliar treatment herbicidal activity, velvet leaf of COC(=O)OC(C)N(C(=O)c1ccc(C(F)(F)F)nc1CSCc1nnn(C)n1)c1nnnn1C (stereo not shown) , can you help?
98

Give the measured Foliar treatment herbicidal activity, velvet leaf of Cn1nnnc1NC(=O)c1ccc(C(F)(F)F)nc1COCc1nc(C(F)F)n(C)n1 .
70

Field request: Foliar treatment herbicidal activity, velvet leaf | item: Cn1nnnc1COCc1nc(C(F)(F)F)ccc1C(=O)Nc1nnnn1C
100

Entry Cn1nc(COCc2nc(C(F)(F)F)ccc2C(=O)Nc2nnnn2C)nc1I : reported Foliar treatment herbicidal activity, velvet leaf = ?
100

Find the recorded Foliar treatment herbicidal activity, velvet leaf belonging to CC(C)OC(=O)OC(C)N(C(=O)c1ccc(C(F)(F)F)nc1COCc1nnn(C)n1)c1nnnn1C (stereo not shown) and report it.
100

Param item = Cn1nnc(CNc2nc(C(F)(F)F)ccc2C(=O)Nc2nnnn2C)n1 ; retrieve measured Foliar treatment herbicidal activity, velvet leaf.
0

I would be grateful if you could share the reported Foliar treatment herbicidal activity, velvet leaf for C#CCn1nnnc1NC(=O)c1ccc(C(F)(F)F)nc1COCc1nc(C(F)(F)F)n(C)n1 .
50

Recorded Foliar treatment herbicidal activity, velvet leaf for Cn1nnc(COCc2nc(C(F)(F)F)ccc2C(=O)N(C(=O)c2ccccc2)c2nnnn2C)n1 , please?
100
